Reported Mean, FL2-H is given for each of the following binders.
- target_of_assay: GPC3 on the surface of hepatic cancer cell lines (SK-Hep1-GPC3 transfectant, HepG2, Huh7, Hep3B, SNU398) (human) (UniProt P51654)
- measurement_protocol: FACS, SK-Hep1-GPC3 #9 cells, 1 ug antibody; upper right panel

binder	Mean, FL2-H
clone GS004 (scFv, V domains shown) VH: EVQLLESGGGLVQPGGSLRLSCAVSGFTFSNYSMSWVRQAPGKGLEWVSAISPGSSNKYYADSVKGRFTISRDNSKNTLYLQMNSLRAEDTAVYYCARYRVWAHSASSSYSNAMDVWGQGTLVTVSS VL: QSVLTQPPSASGTPGQRVTISCSGSSSNIGNNDVSWYQQLPGTAPKLLIYSDSQRPSGVPDRFSGSKSGTSASLAISGLRSEDEADYYCGSWDDSLNGYVFGGGTKLTVLG	4.11
clone GS010 (scFv, V domains shown) VH: EVQLLESGGGLVQPGGSLRLSCAASGFTFSNYSMSWVRQAPGKGLEWVSVISPSSGSIYYADSVKGRFTISRDNSKNTLYLQMNSLRAEDTAVYYCARYRVRQLKHTRSYADAMDVWGQGTLVTVSS VL: QSVLTQPPSASGAPGQRVTISCSGSSSNIGSNAVSWYQQLPGTAPKLLIYANSHRPSGVPDRFSGSKSGTSASLAISGLRSEDETDYYCASWDSSLSGYVFGGGTKLTVLG	4.53
clone GS002 (scFv, V domains shown) VH: EVQLLESGGGLVQPGGSLRLSCAASGFTFSGYSMSWVRQAPGKGLEWVSSISPGGSSTYYADSVKGRFTISRDNSKNTLYLQMSSLRAEDTAVYYCARYRVWHMTTGDYYSNAMDVWGQGTLVTVSS VL: QSVLTQPPSASGTPGQRVTISCTGSSSNIGSNAVSWYQQLPGTAPKLLIYDDNKRPSGVLDRFSGSKSGTSASLAISGLRSEDEADYYCGTWDDSLSGYVFGGGTKLTVLG	4.17
